Values compiled from ChEMBL document CHEMBL1140504.

Molecular target: Myelin-associated glycoprotein (Homo sapiens) (UniProt P20916)
Sequence (P20916 whole entry, the tested form may be a part): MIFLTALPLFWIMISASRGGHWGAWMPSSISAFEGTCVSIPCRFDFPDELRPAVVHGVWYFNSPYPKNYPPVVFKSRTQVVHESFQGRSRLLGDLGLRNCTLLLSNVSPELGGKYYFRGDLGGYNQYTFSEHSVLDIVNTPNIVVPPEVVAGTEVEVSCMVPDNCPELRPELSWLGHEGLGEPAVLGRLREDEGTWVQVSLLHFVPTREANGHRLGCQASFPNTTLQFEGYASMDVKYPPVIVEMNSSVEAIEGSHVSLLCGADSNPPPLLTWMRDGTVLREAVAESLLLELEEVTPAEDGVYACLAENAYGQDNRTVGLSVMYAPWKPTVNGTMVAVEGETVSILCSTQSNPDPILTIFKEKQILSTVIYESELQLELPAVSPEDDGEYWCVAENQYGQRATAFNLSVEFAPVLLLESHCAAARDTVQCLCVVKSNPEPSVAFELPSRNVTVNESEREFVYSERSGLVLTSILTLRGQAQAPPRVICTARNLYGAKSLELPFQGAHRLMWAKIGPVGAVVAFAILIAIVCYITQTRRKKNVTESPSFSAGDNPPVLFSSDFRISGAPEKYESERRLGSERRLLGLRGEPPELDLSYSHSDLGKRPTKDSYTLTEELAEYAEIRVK
Assay: Ratio of IC50 for drug to sodium (2S,4S,5R,6R)-5-acetami do-2-((2R,3R,4S,5S,6R)-2-((2R, 3R,4S,6S)-3-acetamido-6-(hydro xymethyl)-2-(2-(trimethylsilyl )ethoxy)-tetrahydro-2H-pyran-4 -yloxy)-3,5-dihydroxy-6-(hydro xymethyl)-tetrahydro-2H-pyran- 4-yloxy)-4-hydroxy-6-((1S,2R)- 1,2,3-trihydroxypropyl)-tetrah ydro-2H-pyran-2-carboxylate for human recombinant MAG N-terminal domain expressed in CHO cells
Type: cell-based
Give measured Ratio IC50 for each item. Keep answers brief.

Prompt line: Fetch value of Ratio IC50 on Myelin-associated glycoprotein (Homo sapiens) (UniProt P20916) for CC(=O)N[C@H]1[C@H]([C@@H](O)[C@H](O)CO)O[C@@](Oc2cccc(-c3ccc(CC(=O)O)cc3)c2)(C(=O)O)C[C@@H]1O .
Response line: 1

Prompt line: For Myelin-associated glycoprotein (Homo sapiens) (UniProt P20916), give Ratio IC50 of the listed compound: CC(=O)N[C@H]1[C@H]([C@@H](O)[C@H](O)CO)O[C@@](Oc2ccc(Oc3ccccc3)cc2)(C(=O)O)C[C@@H]1O
Response line: 0.89

Prompt line: Report Ratio IC50 from Myelin-associated glycoprotein (Homo sapiens) (UniProt P20916) testing of CC(=O)N[C@H]1[C@H]([C@@H](O)[C@H](O)CO)O[C@@](OCc2ccccc2)(C(=O)O)C[C@@H]1O
Response line: 0.62

Prompt line: With Myelin-associated glycoprotein (Homo sapiens) (UniProt P20916) as the test system, provide measured Ratio IC50 for this compound: CC(=O)N[C@H]1[C@H]([C@@H](O)[C@H](O)CO)O[C@@](Oc2cccc(-c3cn(-c4ccc(C(=O)O)cc4)nn3)c2)(C(=O)O)C[C@@H]1O
Response line: 0.9

Prompt line: # assay system Myelin-associated glycoprotein (Homo sapiens) (UniProt P20916): give Ratio IC50 of CC(=O)N[C@H]1[C@H](OCC[Si](C)(C)C)O[C@H](CO[C@]2(C(=O)O)C[C@H](O)[C@@H](NC(C)=O)[C@H]([C@H](O)[C@H](O)CO)O2)C[C@@H]1O[C@@H]1O[C@H](CO)[C@H](O)[C@H](O[C@]2(C(=O)O)C[C@H](O)[C@@H](NC(C)=O)[C@H]([C@@H](O)[C@H](O)CO)O2)[C@H]1O
Response line: 4

====

Target: Myelin-associated glycoprotein (Homo sapiens)
Experiment: Ratio of IC50 for drug to sodium (2S,4S,5R,6R)-5-acetami do-2-((2R,3R,4S,5S,6R)-2-((2R, 3R,4S,6S)-3-acetamido-6-(hydro xymethyl)-2-(2-(trimethylsilyl )ethoxy)-tetrahydro-2H-pyran-4 -yloxy)-3,5-dihydroxy-6-(hydro xymethyl)-tetrahydro-2H-pyran- 4-yloxy)-4-hydroxy-6-((1S,2R)- 1,2,3-trihydroxypropyl)-tetrah ydro-2H-pyran-2-carboxylate for human recombinant MAG N-terminal domain expressed in CHO cells
Format: cell-based
Readout kind: Ratio IC50
Simply state the number, no unit and no words.

Prompt line: Input CC(=O)N[C@H]1[C@H]([C@@H](O)[C@H](O)CO)O[C@@](OCc2ccc(-c3ccccc3)cc2)(C(=O)O)C[C@@H]1O , output reported Ratio IC50.
Response line: 0.38

Prompt line: Give Ratio IC50 for CC(=O)N[C@H]1[C@H]([C@@H](O)[C@H](O)CO)O[C@@](Oc2cccc(-c3cn(CC(=O)O)nn3)c2)(C(=O)O)C[C@@H]1O
Response line: 1.1

Prompt line: Give recorded Ratio IC50. CO[C@]1(C(=O)O)C[C@H](O)[C@@H](NC(C)=O)[C@H]([C@@H](O)[C@H](O)CO)O1
Response line: 0.07
